- target-desc: GABA-A receptor; alpha-2/beta-3/gamma-2 (Homo sapiens, UniProt P18507+P28472+P47869)
- Sequence (P18507 whole entry): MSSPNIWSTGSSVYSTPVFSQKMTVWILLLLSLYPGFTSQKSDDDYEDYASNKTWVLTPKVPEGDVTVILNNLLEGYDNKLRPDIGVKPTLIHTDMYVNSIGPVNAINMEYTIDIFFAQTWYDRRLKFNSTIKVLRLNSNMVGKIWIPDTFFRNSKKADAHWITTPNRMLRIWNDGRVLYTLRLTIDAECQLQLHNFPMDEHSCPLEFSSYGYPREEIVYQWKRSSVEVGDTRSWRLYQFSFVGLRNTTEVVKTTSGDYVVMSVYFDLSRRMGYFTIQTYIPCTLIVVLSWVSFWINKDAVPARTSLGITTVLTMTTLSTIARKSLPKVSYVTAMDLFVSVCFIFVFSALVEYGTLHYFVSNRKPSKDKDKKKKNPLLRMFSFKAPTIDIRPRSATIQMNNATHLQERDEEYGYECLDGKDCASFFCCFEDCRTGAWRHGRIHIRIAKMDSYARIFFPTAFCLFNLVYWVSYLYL
- Sequence (P28472 whole entry): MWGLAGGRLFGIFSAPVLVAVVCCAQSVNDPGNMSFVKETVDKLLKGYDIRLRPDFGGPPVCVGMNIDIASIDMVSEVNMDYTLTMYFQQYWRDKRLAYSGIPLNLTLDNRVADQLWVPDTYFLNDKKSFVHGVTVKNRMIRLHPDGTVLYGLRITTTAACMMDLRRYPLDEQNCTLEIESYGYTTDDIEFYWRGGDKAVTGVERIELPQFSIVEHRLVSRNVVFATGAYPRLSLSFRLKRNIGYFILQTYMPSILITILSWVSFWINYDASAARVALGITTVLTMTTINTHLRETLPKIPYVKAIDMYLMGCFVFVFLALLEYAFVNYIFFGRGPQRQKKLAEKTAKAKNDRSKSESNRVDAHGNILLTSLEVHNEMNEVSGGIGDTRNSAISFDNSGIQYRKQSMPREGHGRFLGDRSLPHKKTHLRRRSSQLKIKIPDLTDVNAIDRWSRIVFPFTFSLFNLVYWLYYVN
- Sequence (P47869 whole entry): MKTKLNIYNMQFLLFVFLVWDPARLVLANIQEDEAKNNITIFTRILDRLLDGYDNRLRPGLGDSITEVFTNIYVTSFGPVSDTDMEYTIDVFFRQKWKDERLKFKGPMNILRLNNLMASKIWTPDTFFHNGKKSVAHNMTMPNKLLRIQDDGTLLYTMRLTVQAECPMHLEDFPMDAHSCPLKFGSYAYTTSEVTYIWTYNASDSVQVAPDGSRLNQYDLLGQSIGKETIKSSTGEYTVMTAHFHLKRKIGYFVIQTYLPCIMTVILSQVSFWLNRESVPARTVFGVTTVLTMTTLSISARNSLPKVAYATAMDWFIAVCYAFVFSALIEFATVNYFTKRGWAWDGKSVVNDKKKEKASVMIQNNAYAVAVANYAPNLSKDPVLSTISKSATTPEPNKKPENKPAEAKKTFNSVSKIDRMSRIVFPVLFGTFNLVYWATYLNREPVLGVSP
- experiment: Displacement of [3H]flumazenil from human recombinant alpha2-beta3-gamma2 GABAA receptors expressed in mouse LTK- cells incubated for 1 hr by liquid scintillation counter analysis
- Assay type: cell-based
Answer each item with its documented pKi.
pKi here: minus log base 10 of the concentration, concentration in moles per litre.

Ask: Recall the recorded pKi for CCOC(=O)c1ncn2c1c(C)c(C(=O)NCCOCCOCCOCCOCCOCCOCCOCCNC(=O)OC(C)(C)C)c1ccccc12 with GABA-A receptor; alpha-2/beta-3/gamma-2 (Homo sapiens, UniProt P18507+P28472+P47869) and state it.
Reply: 7.20

Ask: Recall the recorded pKi for CCOC(=O)c1ncn2c1c(C)c(C(=O)NCCCCCCCNC(=O)c1c(C)c3c(C(=O)OCC)ncn3c3ccccc13)c1ccccc12 with GABA-A receptor; alpha-2/beta-3/gamma-2 (Homo sapiens, UniProt P18507+P28472+P47869) and state it.
Reply: 7.13

Ask: Recall the recorded pKi for CCOC(=O)c1ncn2c1c(C)c(C(=O)NCCOCCOCCNC(=O)c1c(C)c3c(C(=O)OCC)ncn3c3ccccc13)c1ccccc12 with GABA-A receptor; alpha-2/beta-3/gamma-2 (Homo sapiens, UniProt P18507+P28472+P47869) and state it.
Reply: 7.00
